Data origin, for the record: ChEMBL document CHEMBL5543064

# target: Caspase-1 (Homo sapiens, UniProt P29466)
# assay: Inhibition of Caspase-1 (unknown origin)
endpoint_name: IC50 (nM)

A. C[C@H](NC(=O)C(NC(=O)c1ccc2ccccc2c1)C(=O)O)C(=O)N[C@H](CN=[N+]=[N-])CC(=O)O (stereo partly specified)
B. Cc1cc(Oc2ccccc2S(=O)(=O)N[C@H](C=O)CC(=O)O)ccc1C(C)C
Incoming: Min IC50? A | B Please reply using the label of the selected record.
Outgoing: A
(A: 40 nM, B: 1000 nM)

A. CC(C)C(NC(=O)c1ccc2ccccc2c1)C(=O)N[C@@H](C)C(=O)N[C@H](CN=[N+]=[N-])CC(=O)O (stereo partly specified)
B. C[C@H](NC(=O)C(NC(=O)c1cc2ccccc2[nH]1)C(=O)O)C(=O)N[C@H](CN=[N+]=[N-])CC(=O)O (stereo partly specified)
C. Cc1cccc(S(=O)(=O)N[C@H](C=O)CC(=O)O)c1-c1ccccc1
D. C[C@H](NC(=O)[C@H](CCC(=O)O)NC(=O)OCc1ccccc1)C(=O)NC(CC(=O)O)C(=O)CNS(=O)(=O)CCc1ccccc1 (stereo partly specified)
Incoming: Rank order required: IC50, descending. Reply with the labels, ordered as the question asks.
Outgoing: C, B, D, A
(C: 34400 nM, B: 75 nM, D: 20 nM, A: 4.6 nM)

====

# target: Caspase-8 (Homo sapiens, UniProt Q14790)
# Sequence (Q14790 217-374 limits assumed): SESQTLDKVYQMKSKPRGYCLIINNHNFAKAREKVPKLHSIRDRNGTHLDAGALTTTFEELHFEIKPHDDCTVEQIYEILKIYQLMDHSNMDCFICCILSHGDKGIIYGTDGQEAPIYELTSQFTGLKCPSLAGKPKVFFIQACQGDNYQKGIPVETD
# Sequence (Q14790 385-479 limits assumed): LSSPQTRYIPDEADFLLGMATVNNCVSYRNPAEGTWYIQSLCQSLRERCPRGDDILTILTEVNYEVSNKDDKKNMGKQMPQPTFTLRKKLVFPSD
endpoint_name: pIC50
pIC50 here: minus log base 10 of the concentration, concentration in moles per litre.

Item: O=C1C[C@H](NC(=O)[C@@H]2CCCN3C(=O)CC[C@H](NC(=O)c4nccc5ccccc45)C(=O)N23)[C@H](O)O1 | pIC50: 9.92

====

# target: Caspase-1 (Homo sapiens)
# Sequence (P29466 whole entry): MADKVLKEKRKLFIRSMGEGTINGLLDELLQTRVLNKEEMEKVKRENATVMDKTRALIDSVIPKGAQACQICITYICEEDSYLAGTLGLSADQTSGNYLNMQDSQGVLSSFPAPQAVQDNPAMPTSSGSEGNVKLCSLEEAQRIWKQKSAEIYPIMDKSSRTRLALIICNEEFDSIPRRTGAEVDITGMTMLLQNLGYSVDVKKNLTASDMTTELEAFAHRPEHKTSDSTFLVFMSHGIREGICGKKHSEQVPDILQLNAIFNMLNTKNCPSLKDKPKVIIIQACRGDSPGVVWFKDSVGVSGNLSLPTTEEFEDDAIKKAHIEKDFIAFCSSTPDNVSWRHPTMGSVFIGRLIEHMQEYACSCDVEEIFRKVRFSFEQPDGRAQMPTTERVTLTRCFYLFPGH
# assay: Binding affinity to caspase-1 (unknown origin) assessed as inhibition constant
pKi: −log10 of the molar value.
endpoint_name: pKi

I. O=C(CN1C(=O)[C@H](NC(=O)c2ccccc2)CN(C(=O)CCc2ccccc2)c2ccccc21)N[C@H]1CC(=O)OC1O (stereo partly drawn)
II. C[C@H](NC(=O)[C@H](CCC(=O)O)NC(=O)OCc1ccccc1)C(=O)NC(CC(=O)O)C(=O)CNS(=O)(=O)CCc1ccccc1 (stereo partly drawn)
Incoming: Min pKi? I | II Please reply using the label of the selected record.
Outgoing: I

====

# target: Caspase-1 (Homo sapiens, UniProt P29466)
# assay: Binding affinity to human caspase-1 assessed as apparent inhibition constant
# condition_label: read-out: Ki(app)
endpoint_name: Ki (nM)
Number only, in nM; omit the unit.

Item: O=C[C@H](CC(=O)O)NC(=O)CCCCCNC(=O)c1ccc(Nc2cnc3ccccc3n2)cc1 | Ki: 150
